These entries and their values trace back to ChEMBL document CHEMBL4342481.

assay: Stability in human liver microsomes assessed as percentage of compound metabolized at 5 uM after 15 mins; type: ADME, Microsome; conditions: liver microsomes, read-out: Drug metabolism

- sample-smiles: "CCNc1cc(N2CC(n3c(=O)[nH]c4ccccc43)C2)ncc1Cl"
  metabolised at 0.25 h, 5 µM (%): 27
- sample-smiles: "CCOc1cc(N2CCC3(CC2)C(=O)Nc2ccc(Br)cc23)nnc1Cl"
  metabolised at 0.25 h, 5 µM (%): 11
- sample-smiles: "CCOc1cc(N2CC(n3c(=O)[nH]c4cc(C(F)(F)F)ccc43)C2)ncc1Cl"
  metabolised at 0.25 h, 5 µM (%): 4
- sample-smiles: "O=C1Nc2ccc(C3CC3)cc2C12CCN(c1ccc(Cl)nn1)CC2"
  metabolised at 0.25 h, 5 µM (%): 45
- sample-smiles: "CCOc1cc(N2CC(n3c(=O)[nH]c4ccccc43)C2)ncc1Cl"
  metabolised at 0.25 h, 5 µM (%): 15
- sample-smiles: "Cc1ccc(N2CCC3(CC2)C(=O)Nc2ccc(Br)cc23)nn1"
  metabolised at 0.25 h, 5 µM (%): 17
- sample-smiles: "O=C1Nc2ccc(Cl)cc2C12CCN(c1ccc(Cl)nn1)CC2"
  metabolised at 0.25 h, 5 µM (%): 8

###

assay: Stability in rat liver microsomes assessed as percentage of compound metabolized at 5 uM after 15 mins; type: ADME, Microsome; details: liver microsomes, read-out: Drug metabolism
Consider the following compounds and their measured metabolised at 0.25 h, 5 µM readings.
recorded-metric: metabolised at 0.25 h, 5 µM (%)

- sample-smiles: "O=C1Nc2ccc(C3CC3)cc2C12CCN(c1ccc(Cl)nn1)CC2"
  observed-measurement: 100
- sample-smiles: "CCOc1ccc(N2CCC3(CC2)C(=O)Nc2ccc(Br)cc23)nn1"
  observed-measurement: 31
- sample-smiles: "CCOc1cc(N2CC(n3c(=O)[nH]c4ccccc43)C2)ncc1Cl"
  observed-measurement: 46
